Tested on: MOLT-4
experimentalDetails: NCI tumour cell line growth inhibition, 48 h
Active and inactive are the calls of the source. No stated cut-off is given here; in the data, active = GI50 up to about 1.1 µM and inactive = higher.
Classes used: 1 (yes) for active, 0 (no) for inactive

| molecule | studySystem | discreteLabel |
| --- | --- | --- |
| CCOC1Oc2ccccc2-c2nc(SC)ncc21 (centres undefined) | MOLT-4 | 0 (no) |
| CN/N=C(\C(=O)Nc1ccc([N+](=O)[O-])cc1[N+](=O)[O-])C1NC(=O)NC1=O (centres undefined) | MOLT-4 | 0 (no) |
| O=C(c1ccccc1)C(c1ccccc1)C1(O)C(=O)Nc2ccc([N+](=O)[O-])cc21 (centres undefined) | MOLT-4 | 0 (no) |
| CSC(=S)NNC(=O)c1ccncc1 | MOLT-4 | 0 (no) |
| Cn1c(=O)c2/c(n(C)c1=O)=N\C=c1\c(=O)n(C)c(=O)n(C)\c1=N\C=2 | MOLT-4 | 0 (no) |
| COc1ccc(/C=C\c2cc(OC)c(OC)c(OC)c2)c(O)c1O | MOLT-4 | 1 (yes) |
| Cc1cccc(C)c1NC(=O)/C(Cl)=C(/Cl)C(=O)O | MOLT-4 | 0 (no) |
| SC1=NNC2(C(Cl)=N1)c1ccccc1-c1ccccc12 | MOLT-4 | 0 (no) |
| CCOP(=O)(OCC)C(c1ccc(F)cc1)N(C(=O)NC(F)(F)F)c1ccc(F)cc1 (centres undefined) | MOLT-4 | 0 (no) |
| Cn1cc2ccccc2c1-c1nc(F)nc(Nc2ccc(N)cc2)n1 | MOLT-4 | 0 (no) |
| CCc1n[nH]c(=O)n1N | MOLT-4 | 0 (no) |
| CCOC(=O)/C=C/CCO[Si](C)(C)C(C)(C)C | MOLT-4 | 0 (no) |
| Cc1cc2c(c3oc(C4(C)OC4C4OC4C)cc(=O)c13)C(=O)c1c(O)c(C3CC(C)(N(C)C)C(O)C(C)O3)cc(C3CC(N(C)C)C(O)C(C)O3)c1C2=O (centres undefined) | MOLT-4 | 1 (yes) |
| COC(=O)C1=Cc2c(cc(OC)c(OC)c2OC)[C@H](c2ccc(OC)c(OC)c2OC)C1C(=O)OC (some centres undefined) | MOLT-4 | 0 (no) |

---

System: MDA-MB-231
experimentalDetails: NCI tumour cell line growth inhibition, 48 h
Active and inactive are the calls of the source. Cut-off read from the data, not from the text of the source: active = GI50 up to about 1.1 µM and inactive = higher.
GI50 for assorted molecules

| molecule | GI50 |
| --- | --- |
| COc1ccc(/C=C2\Sc3nnc(C)n3N=C2c2cc(F)c(Cl)cc2Cl)cc1OC | 26.4 µM (inactive) |
| COc1ccc(OC)c2sc(N3C(=O)/C(=C/Cc4ccco4)N=C3c3ccccc3)nc12 | > 100 µM (inactive) |
| O=C1/C(=C\c2cccc(Oc3ccccc3)c2)S(=O)(=O)C(c2ccccc2)N1c1cc(Cl)ccc1Cl (stereo not given) | 28.7 µM (inactive) |
| COC(CN(C=O)[C@@H](c1ccc(Cl)cc1)c1cc2ccccc2o1)OC | 18.5 µM (inactive) |
| CCCCc1ccc(Nc2nc3ncnc-3c[nH]2)cc1 | 12.8 µM (inactive) |

---

Tested on: CAKI-1
experimentalDetails: NCI tumour cell line growth inhibition, 48 h
The source made the active and inactive calls. Rule as the data show it: active = GI50 up to about 1.1 µM and inactive = higher.
Outcome codes: y (active), n (inactive)

| compound | discreteLabel |
| --- | --- |
| COc1cccc2c1C(=O)c1c(O)c3c(c(O)c1C2=O)C[C@](O)(C(=O)CO)CC3OC1CC(N)C(OC2CCCCO2)C(C)O1 (some centres undefined) | y |
| Cc1cc(C)c2c(=O)n(CC(O)CN3CCN(c4ncccn4)CC3)sc2n1 (centres undefined) | n |
| COc1ccc2c(c1)CCCN2S(=O)(=O)c1ccccc1[N+](=O)[O-] | n |
| CN(C)c1ccc(C(=C2C=CC(=[N+](C)C)C=C2)c2ccc(N(C)C)cc2)cc1 | y |
| Cn1cc2ccccc2c1-c1nc(F)nc(Nc2ccc(N)cc2)n1 | n |
| CCC(=O)COc1ccc(NC(NC(=O)C(C(F)(F)F)C(F)(F)F)(C(F)(F)F)C(F)(F)F)cc1 | n |
| CCOP(=O)(OCC)C(c1ccc(F)cc1)N(C(=O)NC(F)(F)F)c1ccc(F)cc1 (centres undefined) | n |
| O=C1CC(O)c2cscc21 (centres undefined) | n |
| c1ccc(C(=NCCC2CNc3ccccc32)c2ccccc2)cc1 (centres undefined) | n |
| C#CCNC(=O)NCCCCC(NC(=O)OCc1ccccc1)C(=O)OCc1ccccc1 (centres undefined) | n |
| O=c1/c(=C/c2ccc(-c3ccc(Cl)cc3Cl)o2)sc2n1[C@@H](c1ccc3c(c1)OCO3)C=C(c1cc(F)c(Cl)cc1Cl)N=2 | n |
| Clc1ccc2ns[s+]c2c1 | n |
| CC(C)=C/C=C1/CS(=O)(=O)C=C1C | n |
| Cn1c(=O)c2/c(n(C)c1=O)=N\C=c1\c(=O)n(C)c(=O)n(C)\c1=N\C=2 | n |
| CC1(C)Cc2nc3c(cc2C(=O)C1/C=N/C(C#N)=C(\N)C#N)C(=O)C(/C=N/C(C#N)=C(\N)C#N)C(C)(C)C3 (centres undefined) | n |
| CCOC1c2cc(OC)c(OC)cc2-c2ccc3ccccc3c2N1C (centres undefined) | n |
| C=CCn1c(-c2ccccc2)cs/c1=N\C(P(=O)(O)O)P(=O)(O)O | n |
| O=C(CCc1nnc(S)[nH]1)Nc1cc(Cl)c(Cl)cc1Cl | n |
| C[C@H](CCC(=O)O)[C@H]1CC[C@H]2[C@@H]3[C@@H](O)C[C@@H]4C[C@H](O)CC[C@]4(C)[C@H]3C[C@H](O)[C@]12C | n |

---

GI50 reference
System: SF-268
experimentalDetails: NCI tumour cell line growth inhibition, 48 h
The source made the active and inactive calls. Cut-off read from the data, not from the text of the source: active = GI50 up to about 1.1 µM and inactive = higher.

| compound | studySystem | GI50 |
| --- | --- | --- |
| CCN(C)c1nc(N(C)CC)c2nc(N(C)CC)nc(N(C)CC)c2n1 | SF-268 | > 100 µM (inactive) |
| COc1cccc(NC(=O)C(=O)C2C=CCS2(=O)=O)c1 (configuration not stated) | SF-268 | > 100 µM (inactive) |
| CCC1=CC2CN3CCc4c([nH]c5ccccc45)C(C(=O)OC)(C2)C13 (configuration not stated) | SF-268 | 54.5 µM (inactive) |
| O=C(O)C1SCCS1 | SF-268 | > 100 µM (inactive) |
| NNc1[nH]c(=S)[nH]c1C(N)=O | SF-268 | > 100 µM (inactive) |
| C[C@]12CCc3nonc3C1CC[C@@H]1C2CC[C@]2(C)C(=O)CCC12 (some centres not stated) | SF-268 | 39.4 µM (inactive) |
| O=C1CCCC/C1=C\c1ccc(Cl)c(Cl)c1 | SF-268 | 23.3 µM (inactive) |

---

Tested on: SF-268
experimentalDetails: NCI tumour cell line growth inhibition, 48 h
The source made the active and inactive calls. No stated cut-off is given here; in the data, active = GI50 up to about 1.1 µM and inactive = higher.
Reported GI50 values follow for various compounds

| compound | GI50 |
| --- | --- |
| COc1ccc(Cc2nc3cc(C(F)(F)F)ccc3n2CCCN(C)C)cc1 | 16.8 µM (inactive) |
| O=c1c2cn[nH]c2nc2scc(-c3ccc(Cl)cc3)n12 | > 100 µM (inactive) |
| O=C(CCc1nnc(S)[nH]1)Nc1cc(Cl)c(Cl)cc1Cl | > 100 µM (inactive) |
| CC(NC(CC12CC3CC(CC(C3)C1)C2)C(N)=O)c1ccccc1 (configuration not stated) | 25 µM (inactive) |
| Fc1cccc(Cl)c1C1SCc2nc3ccccc3n21 (configuration not stated) | 50.5 µM (inactive) |
| N/C(=N\Nc1ccc(S(N)(=O)=O)cc1)c1cnccn1 | > 100 µM (inactive) |
| COc1ccccc1NC(=O)CC(=O)N/N=C/c1ccc(N(CCC#N)S(=O)(=O)c2ccccc2)cc1 | > 100 µM (inactive) |
| O=C(Nc1cc(Cl)c(Cl)cc1Cl)C(=O)C1C(=O)NC(=S)NC1=O | > 100 µM (inactive) |
| c1ccc(/N=C(/Nc2ccccc2)N2CCCCC2)cc1 | > 100 µM (inactive) |
| O=C(CC(=O)N1N=C(c2ccccc2)C(/N=N/c2ccccc2Cl)C1=O)Nc1ccccc1Cl (configuration not stated) | 31.5 µM (inactive) |
| C=C1CC[C@@H]2[C@](C)(COC(=O)CCC(=O)O)CCC[C@@]2(C)[C@@H]1CCC1=CC(=O)OC1 | > 100 µM (inactive) |
| C=CCN1C(=O)NC(=O)/C(=C/c2c3ccccc3cc3ccccc23)C1=O | 24.5 µM (inactive) |

---

The entries below come with measured GI50 values attached.
System: SF-295
experimentalDetails: NCI tumour cell line growth inhibition, 48 h
Activity calls are given as the source filed them. No stated cut-off is given here; in the data, active = GI50 up to about 1.1 µM and inactive = higher.
endpoint: GI50

| compound | endpoint | observedResult |
| --- | --- | --- |
| Nc1ncnc2c1ncn2[C@@H]1C[C@H]1CO | GI50 | > 100 µM (inactive) |
| FC(F)(F)c1ccc2c(c1)nc(Cc1ccc(Cl)cc1)n2CC1CCCN2CCCCC12 (configuration not stated) | GI50 | 10.5 µM (inactive) |
| Cc1cccc(C(C)(C)C)c1NC(=O)C(C#N)C1=C(Cl)C(=O)c2ccccc2C1=O (configuration not stated) | GI50 | 15.9 µM (inactive) |
| O=C(O)Cc1cccc2c(=O)cc(-c3ccccc3)oc12 | GI50 | 242 µM (inactive) |
| c1ccc(-c2cc(-c3cc(-c4ccccn4)[nH]n3)n[nH]2)nc1 | GI50 | 85.5 µM (inactive) |
| O=C1/C(=C\c2cccc(Oc3ccccc3)c2)S(=O)(=O)C(c2ccccc2)N1c1cc(Cl)ccc1Cl (configuration not stated) | GI50 | 14.2 µM (inactive) |
| CCOP(C)(=O)C(Nc1ccc(F)cc1)c1ccc(F)cc1 (configuration not stated) | GI50 | > 100 µM (inactive) |
| c1ccc2c(c1)nc1n2CNCC1 | GI50 | > 100 µM (inactive) |
| Cc1cc2ncn(C3CCCO3)c2cc1C (configuration not stated) | GI50 | > 100 µM (inactive) |
| O=c1c2cn[nH]c2nc2scc(-c3ccc(Cl)cc3)n12 | GI50 | > 100 µM (inactive) |
| CC1=C(C(=O)N[C@@H](CC(C)C)C(=O)O)N2C(=O)[C@@H](NC(=O)[C@@H](N)Cc3ccccc3)[C@H]2SC1 | GI50 | > 100 µM (inactive) |
| COc1ccc(Cc2nc3cc(C(F)(F)F)ccc3n2CCCN(C)C)cc1 | GI50 | 19.7 µM (inactive) |

The origin of these recorded values is ChEMBL document CHEMBL1201862.
